Tested on: SF-268
Experimental Details: NCI tumour cell line growth inhibition, 48 h
Activity calls are given as the source filed them. No stated cut-off is given here; in the data, active = GI50 up to about 1.1 µM and inactive = higher. Where a SMILES comes first, the peptide text is derived from it. [ ]: non-standard residue; d: D form. The star is where a group is joined. Octanoyl = CCCCCCCC(=O)*; Aib = CC(C)(N)C(=O)O; tBu = CC(C)(C)*
For each of the molecules below, state its GI50.

In: Returns the measured GI50 for the input molecule. Input: CCCCc1ccc(-n2sc3ncc([N+](=O)[O-])cc3c2=O)cc1
Out: 13 µM (inactive)

In: Cc1[nH]n(-c2nc3c(c(=O)[nH]2)CCCC3)c(=O)c1CCO ?
Out: > 100 µM (inactive)

In: CC(=O)N1C(Nc2cccc3nc(C)ccc23)CCN1c1ccccc1 (stereo not drawn) ?
Out: > 10 µM (inactive)

In: CCCCSC(=CC(=O)c1cccc(C(=O)C=C(SCCCC)SCCCC)n1)SCCCC ?
Out: > 100 µM (inactive)

In: CN1CCc2c1nc(-c1ccc(Cl)cc1)c1c2N(C)CC1 ?
Out: 21.5 µM (inactive)

In: CC1=NNC(=O)C1C1CC(c2c[nH]c3ccccc23)=NNC1=O (stereo not drawn) ?
Out: > 100 µM (inactive)

In: CC1(C)C(=O)C(O)=CC2C1=CCC1C2(C)C(=O)CC2(C)C(C(C)(O)C(=O)CC(O)C(C)(C)O)C(O)CC12C (stereo not drawn) ?
Out: 3.11 µM (inactive)

In: NNC(=O)C(O)C(O)C(=O)NN (stereo not drawn) ?
Out: > 100 µM (inactive)

In: Cn1c(=O)cc2[nH]c3ccccc3n2c1=O ?
Out: > 100 µM (inactive)

In: O=S(=O)(O)c1cc(/N=N/c2c(O)ccc3ccccc23)ccc1/C=C/c1ccc(/N=N/c2c(O)ccc3ccccc23)cc1S(=O)(=O)O ?
Out: > 100 µM (inactive)

In: O=c1/c(=C/c2ccc(-c3ccc(Cl)cc3Cl)o2)sc2n1[C@@H](c1ccc(Cl)cc1)C=C(c1cc(F)c(Cl)cc1Cl)N=2 ?
Out: 36.1 µM (inactive)

In: O=C(O)CCc1nc(-c2ccccc2-n2cccc2)no1 ?
Out: > 100 µM (inactive)

In: COc1cc(OC)c2c(=O)c3cccc([N+](=O)[O-])c3n(C)c2c1 ?
Out: > 100 µM (inactive)

In: CC1=CC(=O)/C(=C/n2c(=S)[nH]c3ccc([N+](=O)[O-])cc32)C(=O)O1 ?
Out: > 100 µM (inactive)

In: Oc1ncnc2c1nnn2CCCn1nnc2c(O)ncnc21 ?
Out: > 100 µM (inactive)

In: CC(C)(C)C1=CC(=C(P(=O)(O)O)P(=O)(O)O)C=C(C(C)(C)C)C1=O ?
Out: > 50 µM (inactive)

In: CC(=O)Nc1ccc(/C=C/[N+](=O)[O-])cc1 ?
Out: 4.67 µM (inactive)

In: CCCCCCCC(=O)NC(C)(C)C(=O)NC(COC(C)(C)C)C(=O)NC(CC(C)C)C(=O)NC(C)(C)C(=O)NC(COC(C)(C)C)C(=O)NC(COC(C)(C)C)C(=O)NC(CC(C)C)C(=O)NC(C)(C)C(=O)NC(COC(C)(C)C)C(=O)NC(C(=O)NC(CC(C)C)C(=O)OC)C(C)CC (stereo not drawn) (Octanoyl-[Aib]S(tBu)L[Aib]S(tBu)S(tBu)L[Aib]S(tBu)IL-OMe; configuration not given here) ?
Out: 9.95 µM (inactive)
